- TARGET OR TEST SYSTEM: T1, human GPC3 on SK-HEP-1-huGPC3 cells (human, UniProt P51654 25-554)
- T1 construct: whole, on cells
- ASSAY SUMMARY: flow cytometry on SK-HEP-1-huGPC3 cells, PE anti-mouse IgG Fc; further: test concentration or dose not given here
MEASURED PROPERTY: Positive population, % (%)
Output spec: scalar in %, unitless text.

BINDER	UNIT TEXT	MEASUREMENT
LAb19306 (antibody, V domains shown, Mouse monoclonal antibody purified from hybridoma supernatant) VH: EVQLVESGGGLVKPGGSLKLSCAASGFAFSTYDMSWVRQTPERRLEWVAYISSGGATTYYPDSVKGRFTISRDNAKNTLYLQMSSLKSEDTAMYYCARLSLMIRGWFAYWGQGTLVTVSA VL: DVVMTQTPLSLPVSLGDQASISCRSSQSLVHSNGNTYLHWYLQKPGQSPKLLIYKVSNRFSGVPDRFSGSGSGTDFTLKISRVEAEDLGVYFCSQSTHVPYTFGGGTKLEIK	%	86.2
LAb19309 (antibody, V domains shown, Mouse monoclonal antibody purified from hybridoma supernatant) VH: QVQLQQSGAELVRPGASVTLSCKASGYTFTDYEMHWVKQTPVHGLEWIGGIDPETGNTAYSQKFKGKATLTADKSSSTAYMEVRSLTSEDSAVYYCTRYYSFAYWGQGTLVTVSA VL: DVLMTQTPLSLPVNLGDQASISCRSSQTIVHSNGNTYLEWYLQKPGQSPKLLIYKVSNRFSGVPDRFSGSGSGTDFTLRISRVEAEDLGVYYCFQVSHVPYTFGGGTKLEIK	%	92.7
LAb19307 (antibody, V domains shown, Mouse monoclonal antibody purified from hybridoma supernatant) VH: EVQLVESGGDLVKPGGSLKLSCAASGFAFGTYDMSWVRQTPEKRLEWVAYISSGGNSPYYPQTVKGRFTISRDNAKNTLYLQMSSLKSEDTAMYYCARQNIARRGAMDFWGQGASVTVSS VL: DVVLTQSPLSQPVSLGDQASISCTSSQSLLHSNGNTYLHWYLQKPGQSPKLLIYKVSNRFSGVPDRFSGSGSGTDFTLKISRVEAEDLGVYFCSQSTHVPPTFGGGTKLEIK	%	92.9

Turning now to a further binder:
Input: Fill in: Positive population, % of LAb19308 (antibody, V domains shown, Mouse monoclonal antibody purified from hybridoma supernatant) VH: EVQLVESGGGLVKPGGSLKLSCAASGFAFITYGMSWVRQTPEKRLEWVAYISSGGANTYYPDSVKGRFTISRDNAKNTLYLQMSSLKSEDTAMYYCASLSTLVRGWFAYWGQGTLVTVSA VL: DVVMTQTPLSLPVSLGDQASISCRSSQSLVHSNGNTYLHWYLQKPGQSPKLLIYKVSNRFSGVPDRFSGSGSGTDFTLKISRVEAEDLGVYFCSQSTHVPYTFGGGTKLEIK is ___
Output: 91.4
